# protocol.details: total protein half-life in vivo (active degradation + dilution); higher = more stable protein
# condition.notes: wild type E. coli NCM3722; growth: C-lim chemostat; doubling time 6 h
readout.label: total protein half-life in vivo (h)
Give bare numbers, in h.

Some solved cases for reference:
* MKKWAVIISAVGLAFAVSGCSSDYVMATKDGRMILTDGKPEIDDDTGLVSYHDQQGNAMQINRDDVSQIIER | 4.63
* MSRPTIIINDLDAERIDILLEQPAYAGLPIADALNAELDRAQMCSPEEMPHDVVTMNSRVKFRNLSDGEVRVRTLVYPAKMTDSNTQLSVMAPVGAALLGLRVGDSIHWELPGGVATHLEVLELEYQPEAAGDYLL [P0AFW4] | 1.55

Now for another entry.
Note to self: total protein half-life in vivo recorded for `MQDSILTTVVKDIDGEVTTLEKFAGNVLLIVNVASKCGLTPQYEQLENIQKAWVDRGFMVLGFPCNQFLEQEPGSDEEIKTYCTTTWGVTFPMFSKIEVNGEGRHPLYQKLIAAAPTAVAPEESGFYARMVSKGRAPLYPDDILWNFEKFLVGRDGKVIQRFSPDMTPEDPIVMESIKLALAK` was 4.93

====

# protocol.details: total protein half-life in vivo (active degradation + dilution); higher = more stable protein
# condition.notes: wild type E. coli NCM3722; growth: P-lim chemostat; doubling time 6 h
readout.label: total protein half-life in vivo
Answer format reminder: number followed by unit.

These recorded examples may help you get a feel for the data.
* MVSRYVPDMGDLIWVDFDPTKGSEQAGHRPAVVLSPFMYNNKTGMCLCVPCTTQSKGYPFEVVLSGQERDGVALADQVKSIAWRARGATKKGTVAPEELQLIKAKINVLIG [P0AE70] | 6.19 h
* MEQLRAELSHLLGEKLSRIECVNEKADTALWALYDSQGNPMPLMARSFSTPGKARQLAWKTTMLARSGTVRMPTIYGVMTHEEHPGPDVLLLERMRGVSVEAPARTPERWEQLKDQIVEALLAWHRQDSRGCVGAVDNTQENFWPSWYRQHVEVLWTTLNQFNNTGLTMQDKRILFRTRECLPALFEGFNDNCVLIHGNFCLRSMLKDSRSDQLLAMVGPGLMLWAPREYELFRLMDNSLAEDLLWSYLQRAPVAESFIWRRWLYVLWDEVAQLVNTGRFSRRNFDLASKSLLPWLA [P0AB03] | 3.8 h
* MKTIHDIRRSNARKLRDGVGGNSSFATMIDREPTQTSRFMGDGATKNIGDSMARHIEKCFDLPVGWLDQEHQTTNITKKPDVSITNKQITLVPVISWVQAGAWKEVGYSEVDLSTAETYPCPVPCGEMTYILRVIGDSMIDEYRPGDMIFVDPEVPACHGDDVIALMHDTGETTFKRLIEDGTQRYLKALNPNWPEPYIKINGNCSIIGTVIFSGKPRRYKIKA | 4.81 h
* MMGKLIWLMGPSGSGKDSLLAELRLREQTQLLVAHRYITRDASAGSENHIALSEQEFFTRAGQNLLALSWHANGLYYGVGVEIDLWLHAGFDVLVNGSRAHLPQARARYQSALLPVCLQVSPEILRQRLENRGRENASEINARLARAARYTPQDCHTLNNDGSLRQSVDTLLTLIHQKEKHHACL | 0.578 h

Would you mind listing total protein half-life in vivo for each of the following sequences?
1. MTLRKILALTCLLLPMMASAHQFETGQRVPPIGITDRGELVLDKDQFSYKTWNSAQLVGKVRVLQHIAGRTSAKEKNATLIEAIKSAKLPHDRYQTTTIVNTDDAIPGSGMFVRSSLESNKKLYPWSQFIVDSNGVALGAWQLDEESSAVVVLDKDGRVQWAKDGALTPEEVQQVMDLLQKLLK
2. MNHSLKPWNTFGIDHNAQHIVCAEDEQQLLNAWQYATAEGQPVLILGEGSNVLFLEDYRGTVIINRIKGIEIHDEPDAWYLHVGAGENWHRLVKYTLQEGMPGLENLALIPGCVGSSPIQNIGAYGVELQRVCAYVDSVELATGKQVRLTAKECRFGYRDSIFKHEYQDRFAIVAVGLRLPKEWQPVLTYGDLTRLDPTTVTPQQVFNAVCHMRTTKLPDPKVNGNAGSFFKNPVVSAETAKALLSQFPTAPNYPQADGSVKLAAGWLIDQCQLKGMQIGGAAVHRQQALVLINEDNAKSEDVVQLAHHVRQKVGEKFNVWLEPEVRFIGASGEVSAVETIS

4.74 h
4.81 h
